target_entity: EcoRI Restriction Endonuclease (Escherichia coli)
Sequence (P00642 2-277): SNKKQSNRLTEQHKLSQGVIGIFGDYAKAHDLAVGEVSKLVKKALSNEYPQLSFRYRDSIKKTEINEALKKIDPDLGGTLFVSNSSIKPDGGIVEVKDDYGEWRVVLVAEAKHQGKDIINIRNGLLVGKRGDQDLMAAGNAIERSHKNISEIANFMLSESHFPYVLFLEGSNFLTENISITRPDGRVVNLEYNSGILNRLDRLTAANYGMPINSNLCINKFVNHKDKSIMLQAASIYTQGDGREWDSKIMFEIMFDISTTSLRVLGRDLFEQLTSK
Structures can show the parent of a compound that is named as a salt.
test_readout: IC50

>>> print(df.to_string())
                                   molecule  result_value
0  O=C(O)C(=O)CC(=O)C1(Cc2ccc(Cl)cc2)CCCN(Cc2ccccc2)C1 (stereo not shown) [Compound A, hydrochloride]      > 500 µM

* * *

target_entity: UniProt P03523
Sequence (P03523 whole entry, looked up): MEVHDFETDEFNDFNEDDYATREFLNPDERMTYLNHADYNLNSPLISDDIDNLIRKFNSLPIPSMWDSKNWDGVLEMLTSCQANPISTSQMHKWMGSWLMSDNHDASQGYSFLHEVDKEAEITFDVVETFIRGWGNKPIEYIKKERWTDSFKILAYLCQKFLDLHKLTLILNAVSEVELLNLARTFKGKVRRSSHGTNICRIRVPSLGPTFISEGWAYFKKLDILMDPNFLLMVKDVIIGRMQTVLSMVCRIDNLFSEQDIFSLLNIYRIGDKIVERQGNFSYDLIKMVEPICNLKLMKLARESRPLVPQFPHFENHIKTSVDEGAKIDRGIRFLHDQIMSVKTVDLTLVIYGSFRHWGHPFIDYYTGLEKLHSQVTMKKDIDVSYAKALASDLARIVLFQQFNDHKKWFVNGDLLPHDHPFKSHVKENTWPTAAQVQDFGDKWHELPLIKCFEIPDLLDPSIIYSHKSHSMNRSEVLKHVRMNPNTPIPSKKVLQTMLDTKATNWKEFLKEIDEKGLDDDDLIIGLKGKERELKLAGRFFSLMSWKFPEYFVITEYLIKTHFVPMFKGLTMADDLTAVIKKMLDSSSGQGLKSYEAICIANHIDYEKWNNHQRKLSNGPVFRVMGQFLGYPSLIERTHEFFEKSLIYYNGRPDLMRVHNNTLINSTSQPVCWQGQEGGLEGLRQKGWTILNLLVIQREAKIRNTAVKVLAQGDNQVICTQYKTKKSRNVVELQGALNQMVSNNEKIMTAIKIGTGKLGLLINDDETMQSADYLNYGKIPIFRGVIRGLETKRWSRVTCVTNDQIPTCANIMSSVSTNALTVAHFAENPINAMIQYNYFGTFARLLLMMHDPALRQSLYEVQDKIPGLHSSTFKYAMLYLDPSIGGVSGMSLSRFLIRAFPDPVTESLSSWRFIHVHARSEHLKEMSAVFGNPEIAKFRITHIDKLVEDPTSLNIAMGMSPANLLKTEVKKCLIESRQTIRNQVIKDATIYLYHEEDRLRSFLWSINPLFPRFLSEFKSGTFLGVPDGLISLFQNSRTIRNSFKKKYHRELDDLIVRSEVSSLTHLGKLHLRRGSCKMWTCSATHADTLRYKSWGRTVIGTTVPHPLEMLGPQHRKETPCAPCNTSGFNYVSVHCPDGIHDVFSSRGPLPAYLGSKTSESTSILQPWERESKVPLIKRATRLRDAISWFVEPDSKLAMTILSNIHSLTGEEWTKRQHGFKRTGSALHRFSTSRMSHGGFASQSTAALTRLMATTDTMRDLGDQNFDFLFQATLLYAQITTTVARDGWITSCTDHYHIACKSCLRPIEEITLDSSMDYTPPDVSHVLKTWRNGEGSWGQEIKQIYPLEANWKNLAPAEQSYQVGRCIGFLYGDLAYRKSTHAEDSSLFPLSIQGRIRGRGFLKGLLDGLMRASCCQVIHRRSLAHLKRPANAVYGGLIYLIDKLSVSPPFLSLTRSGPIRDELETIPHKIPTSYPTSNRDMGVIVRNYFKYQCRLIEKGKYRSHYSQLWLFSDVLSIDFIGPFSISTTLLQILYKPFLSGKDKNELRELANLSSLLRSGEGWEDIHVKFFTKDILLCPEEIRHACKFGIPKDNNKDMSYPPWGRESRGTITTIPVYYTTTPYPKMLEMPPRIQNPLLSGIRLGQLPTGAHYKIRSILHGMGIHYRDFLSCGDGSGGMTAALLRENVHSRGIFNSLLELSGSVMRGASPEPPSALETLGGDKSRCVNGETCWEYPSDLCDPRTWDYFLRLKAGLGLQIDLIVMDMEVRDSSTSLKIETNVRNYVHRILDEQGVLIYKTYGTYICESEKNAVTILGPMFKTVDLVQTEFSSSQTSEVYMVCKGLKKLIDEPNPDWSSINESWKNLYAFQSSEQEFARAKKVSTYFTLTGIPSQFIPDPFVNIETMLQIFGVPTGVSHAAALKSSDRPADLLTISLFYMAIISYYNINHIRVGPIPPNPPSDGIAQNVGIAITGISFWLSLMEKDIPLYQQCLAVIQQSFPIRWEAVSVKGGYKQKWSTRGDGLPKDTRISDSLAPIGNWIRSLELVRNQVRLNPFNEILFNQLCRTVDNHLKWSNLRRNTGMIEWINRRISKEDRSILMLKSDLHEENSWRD
Counter-ions that a name gives are not always drawn.
test_readout: IC50

>>> df
                                   compound  test_readout  result_value
0  O=C(O)C(=O)CC(=O)C1(Cc2ccc(Cl)cc2)CCCN(Cc2ccccc2)C1 (stereo not shown) [Compound A, hydrochloride]          IC50      > 500 µM
